Where do the numbers come from? From PubChem BioAssay (Tox21).

Molecular target: Cytochrome P450 3A4 (Homo sapiens) (UniProt P08684)
Sequence (P08684 whole entry, looked up): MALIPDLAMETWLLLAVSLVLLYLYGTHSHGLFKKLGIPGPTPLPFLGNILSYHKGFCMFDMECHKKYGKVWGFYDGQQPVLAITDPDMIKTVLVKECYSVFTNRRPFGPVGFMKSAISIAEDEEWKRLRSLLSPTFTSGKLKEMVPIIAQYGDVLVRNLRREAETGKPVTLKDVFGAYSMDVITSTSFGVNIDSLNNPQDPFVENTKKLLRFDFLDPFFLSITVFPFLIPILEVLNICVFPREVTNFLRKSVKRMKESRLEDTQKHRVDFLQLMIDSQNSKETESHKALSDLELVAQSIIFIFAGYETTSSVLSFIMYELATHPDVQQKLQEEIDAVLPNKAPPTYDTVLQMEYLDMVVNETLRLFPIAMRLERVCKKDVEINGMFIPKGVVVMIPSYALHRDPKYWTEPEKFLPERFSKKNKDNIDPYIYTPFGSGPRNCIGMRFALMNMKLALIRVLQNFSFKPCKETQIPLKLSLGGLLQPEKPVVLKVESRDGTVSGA
Assay: Cytochrome P450 Family 3 Subfamily A Member 4 (CYP3A4) small molecule antagonists: luciferase reporter qHTS assay (AID 1671201); further: nearly all actives have a fitted effect of over 50% in size
Details: P450-Glo CYP3A4 enzyme, luciferin luminescence, 1 h; series mostly up to 115 µM
Records with an inconclusive call do not appear. Calls of active or inactive are those of the source. The call rests on the fitted dose curve; in most records, active means well fitted inhibition curve with a large enough effect in the repeat runs; inconclusive means weak or mixed curves; inactive means no such curve, though single readings can be large or run the other way.
Bench note: report the call from T = active, F = inactive

Write down the call the test reported for this molecule. Item: COP(=O)(CCC(=O)NCO)OC
F

Write down the call the test reported for this molecule. Item: O=C(Nc1ccc2[nH]ccc2c1)c1cc2cc(F)ccc2n1Cc1cccc(F)c1
T

Write down the call the test reported for this molecule. Item: C=CC(=O)OCCCCOC(=O)C=C
F

Write down the call the test reported for this molecule. Item: CCCCCCCCCCBr
F

Write down the call the test reported for this molecule. Item: Fc1cccc(Cl)c1CCl
F

Write down the call the test reported for this molecule. Item: NC(=O)c1ccc(N)nc1
F

Write down the call the test reported for this molecule. Item: CCOP(=S)(OCC)SCS(=O)(=O)CC
T

Write down the call the test reported for this molecule. Item: COc1ccc(OC)c(CC(C)N)c1 (stereo unspecified)
F

Write down the call the test reported for this molecule. Item: CCCCCCCCCBr
F

Write down the call the test reported for this molecule. Item: CN(CCCC(=O)c1cccnc1)N=O
T

Write down the call the test reported for this molecule. Item: C[C@H]1CC[C@@H]2[C@@H](C)[C@H]3[C@H](C[C@H]4[C@@H]5CC=C6CC(O[C@@H]7O[C@H](CO)[C@H](O)[C@H](O[C@@H]8O[C@H](CO)[C@@H](O)[C@H](O)[C@H]8O)[C@H]7O[C@H]7O[C@@H](C)[C@H](O)[C@@H](O)[C@H]7O)CC[C@]6(C)[C@H]5CC[C@]34C)N2C1 (stereo partly specified)
F

Write down the call the test reported for this molecule. Item: CC(=[OH+])/C=C(/C)[O-].CC(=[OH+])/C=C(\C)[O-].CC(=[OH+])/C=C(\C)[O-].[Al]
F

Write down the call the test reported for this molecule. Item: Cc1cc(C(F)(C(F)(F)F)C(F)(F)F)ccc1NC(=O)c1cccc(I)c1C(=O)NC(C)(C)CS(C)(=O)=O
T

Write down the call the test reported for this molecule. Item: O=C(O)c1cc[c]([Hg][Cl])cc1
T

Write down the call the test reported for this molecule. Item: CCOc1cc(C(C)(C)C)ccc1C1COC(c2c(F)cccc2F)=N1 (stereo unspecified)
T

Write down the call the test reported for this molecule. Item: CCSC(C)CC1CC(=O)C(/C(CC)=N/OC/C=C/Cl)=C(O)C1 (stereo unspecified)
T

---

Assay: qHTS assay to identify small molecule agonists of the vitamin D receptor (VDR) signaling pathway - cell viability counter screen (AID 743224); further: nearly all actives have a fitted effect of over 50% in size
Conditions: VDR-bla HEK293T viability, CellTiter-Glo luminescence, 16 h; series mostly up to 62.6 µM
Inconclusive results are not listed. The source made the active and inactive calls. Calls follow the shape of the dose curve; as a rule, active = well fitted cell-killing curve with a large enough effect in the repeat runs; inconclusive = weak or mixed curves, or effect the other way; inactive = no such curve, though single readings can be large or run the other way.
Bench note: report the call from active, inactive

Write down the call the test reported for this compound. Item: Cc1cc(SCc2sc(-c3ccc(C(F)(F)F)c(F)c3)nc2C)ccc1OCC(=O)O
active

Write down the call the test reported for this compound. Item: CC(=O)/C=C/c1ccc2c(c1)OCO2
inactive

Write down the call the test reported for this compound. Item: CCCOCC(=Nc1ccc(Cl)cc1C(F)(F)F)n1ccnc1
active

Write down the call the test reported for this compound. Item: CCCCCCCCCCCCCCCC[n+]1ccccc1
active

Write down the call the test reported for this compound. Item: CC(C)(O)c1cnn2c(-c3ccc(F)c(-c4c(F)cccc4C#N)c3)cnc2n1
active

Write down the call the test reported for this compound. Item: CCOCn1c(-c2ccc(Cl)cc2)c(C#N)c(Br)c1C(F)(F)F
active

Write down the call the test reported for this compound. Item: c1ccc2c(c1)OCC(C1=NCCN1)O2 (stereo unspecified)
inactive

Write down the call the test reported for this compound. Item: Cn1cc(C2=C(c3cn(C4CCN(Cc5ccccn5)CC4)c4ccccc34)C(=O)NC2=O)c2ccccc21
inactive

Write down the call the test reported for this compound. Item: O=C/C(Cl)=C(/Cl)C(=O)O
inactive

Write down the call the test reported for this compound. Item: ClC1=C(Cl)C2(Cl)C3C(Cl)C=CC3C1(Cl)C2(Cl)Cl (stereo unspecified)
active

Write down the call the test reported for this compound. Item: CCCN(CCC)c1c([N+](=O)[O-])cc(S(N)(=O)=O)cc1[N+](=O)[O-]
active

Write down the call the test reported for this compound. Item: CCCCCCCCCCCCBr
inactive

Write down the call the test reported for this compound. Item: CCCCOCN(C(=O)CCl)c1c(CC)cccc1CC
active

Write down the call the test reported for this compound. Item: COc1cccc(C(=O)CCN[C@@H](C)[C@H](O)c2ccccc2)c1
active

Write down the call the test reported for this compound. Item: CN(C)c1ccc(N=Nc2ccccc2)cc1
inactive

Write down the call the test reported for this compound. Item: O=[N+]([O-])c1ccc2ccc3cccc4ccc1c2c34
inactive

Write down the call the test reported for this compound. Item: CC(C)OS(C)(=O)=O
inactive

Write down the call the test reported for this compound. Item: O=C(O)C1C2CCC(O2)C1C(=O)O (stereo unspecified)
inactive

Write down the call the test reported for this compound. Item: Oc1cc(Cl)c(Cl)c(Cl)c1
active

Write down the call the test reported for this compound. Item: CC(=O)[O-].[Tl+]
inactive

Write down the call the test reported for this compound. Item: O=c1[nH]c2ccccc2n1C1CCN(CCCC(c2ccc(F)cc2)c2ccc(F)cc2)CC1
active

Write down the call the test reported for this compound. Item: Clc1ccc(C(c2ccccc2Cl)C(Cl)(Cl)Cl)cc1 (stereo unspecified)
active

Write down the call the test reported for this compound. Item: Oc1ccc(C(=C(Cl)Cl)c2ccc(O)cc2)cc1
active

Write down the call the test reported for this compound. Item: N#CCCSCCC#N
inactive

Write down the call the test reported for this compound. Item: O=C(NC(=O)c1c(F)cccc1F)Nc1cc(Cl)c(OC(F)(F)C(F)F)c(Cl)c1
inactive

Write down the call the test reported for this compound. Item: CC(=O)O[C@H]1CC[C@@]2(C)C(=CC[C@@H]3[C@@H]2CC[C@]2(C)C(=O)CC[C@@H]32)C1
inactive

Write down the call the test reported for this compound. Item: [CH3][Hg][Cl]
active

Write down the call the test reported for this compound. Item: O=c1ssc(Cl)c1Cl
active

Write down the call the test reported for this compound. Item: O=[N+]([O-])c1ccc(Oc2ccc(C(F)(F)F)cc2[N+](=O)[O-])cc1
inactive

Write down the call the test reported for this compound. Item: ClC1=C(Cl)[C@]2(Cl)[C@@H]3[C@@H]4C[C@@H]([C@H]5O[C@@H]45)[C@@H]3[C@@]1(Cl)C2(Cl)Cl
active

Write down the call the test reported for this compound. Item: Cc1cc(C(F)(C(F)(F)F)C(F)(F)F)ccc1NC(=O)c1cccc(I)c1C(=O)NC(C)(C)CS(C)(=O)=O
inactive

Write down the call the test reported for this compound. Item: CCCN(CC)CC1COC2(CCC(C(C)(C)C)CC2)O1 (stereo unspecified)
inactive

Write down the call the test reported for this compound. Item: CC1(c2ccc(Oc3ccccc3)cc2)OC(=O)N(Nc2ccccc2)C1=O (stereo unspecified)
active

Write down the call the test reported for this compound. Item: C[C@]12CC[C@@H]3c4ccc(OC(=O)N(CCCl)CCCl)cc4CC[C@H]3[C@@H]1CC[C@@H]2O
inactive

Write down the call the test reported for this compound. Item: CC(C)CCCCCCCOP(=O)(Oc1ccccc1)Oc1ccccc1
inactive

Write down the call the test reported for this compound. Item: BrC(Br)Br
inactive

Write down the call the test reported for this compound. Item: C[C@H]1CC[C@@H]2[C@@H](C)[C@H]3[C@H](C[C@H]4[C@@H]5CC=C6CC(O[C@@H]7O[C@H](CO)[C@H](O)[C@H](O[C@@H]8O[C@H](CO)[C@@H](O)[C@H](O)[C@H]8O)[C@H]7O[C@H]7O[C@@H](C)[C@H](O)[C@@H](O)[C@H]7O)CC[C@]6(C)[C@H]5CC[C@]34C)N2C1 (stereo partly specified)
inactive

Write down the call the test reported for this compound. Item: COc1cc(C=O)cc2c1[C@H](COC(N)=O)[C@]1(OC(C)=O)ON2C[C@H]2[C@@H]1N2C(C)=O
inactive

Write down the call the test reported for this compound. Item: CC(C)Oc1cccc(NC(=O)c2ccccc2C(F)(F)F)c1
inactive

Write down the call the test reported for this compound. Item: CC1(C)CC/C(=C/c2ccc(Cl)cc2)C1(O)Cn1cncn1 (stereo unspecified)
active

Write down the call the test reported for this compound. Item: CCOC(=O)CC(=O)CCl
inactive

---

Test: qHTS assay to identify small molecule agonists of the AP-1 signaling pathway (AID 1159526)
Conditions: ME-180 (cervical carcinoma) AP-1-bla reporter, beta-lactamase FRET ratio, 5 h; series mostly up to 76.8 µM
Records with an inconclusive call do not appear. Calls of active or inactive are those of the source. The call rests on the fitted dose curve.
Bench note: report the call from TRUE for active, FALSE for inactive

Write down the call the test reported for this molecule. Item: N#CCc1ccc(Cl)cc1
FALSE

Write down the call the test reported for this molecule. Item: O=[N+]([O-])c1ccc2ccc3cccc4ccc1c2c34
FALSE

Write down the call the test reported for this molecule. Item: ClC1=C(Cl)[C@]2(Cl)[C@@H]3[C@@H](Cl)[C@@H](Cl)C[C@@H]3[C@@]1(Cl)C2(Cl)Cl
FALSE

Write down the call the test reported for this molecule. Item: CC(c1ccc(O)cc1)c1ccc(O)cc1
FALSE

Write down the call the test reported for this molecule. Item: CC(C)(COCC1CO1)COCC1CO1 (centres undefined)
FALSE

Write down the call the test reported for this molecule. Item: O=CC(Br)(Br)Br
TRUE

Write down the call the test reported for this molecule. Item: COC[C@H](C)N(C(=O)CCl)c1c(C)csc1C
FALSE

Write down the call the test reported for this molecule. Item: O=[N+]([O-])c1cc(Cl)ccc1Cl
FALSE

Write down the call the test reported for this molecule. Item: N#Cc1ccc(O)cc1
FALSE

Write down the call the test reported for this molecule. Item: Clc1ccc(C(Cl)(Cl)Cl)c(Cl)c1
FALSE

Write down the call the test reported for this molecule. Item: COc1cc(N)c(Cl)cc1C(=O)NC1CN2CCC1CC2 (centres undefined)
FALSE

Write down the call the test reported for this molecule. Item: CCc1ccccc1C
FALSE

Write down the call the test reported for this molecule. Item: N#CCCSCCC#N
FALSE

Write down the call the test reported for this molecule. Item: O=C(Cl)c1ccc(Cl)cc1
FALSE

Write down the call the test reported for this molecule. Item: Oc1ccc(I)cc1
FALSE

Write down the call the test reported for this molecule. Item: CC(=O)/C=C/c1ccc2c(c1)OCO2
FALSE

Write down the call the test reported for this molecule. Item: CC(C)(C)c1ccc(CSc2cnn(C(C)(C)C)c(=O)c2Cl)cc1
FALSE

Write down the call the test reported for this molecule. Item: CCN
FALSE

Write down the call the test reported for this molecule. Item: Clc1ccc(-c2ccc(Cl)c(Cl)c2Cl)c(Cl)c1Cl
FALSE

Write down the call the test reported for this molecule. Item: OC(Cc1ccccc1Cl)(Cn1cncn1)C1(Cl)CC1 (centres undefined)
FALSE

Write down the call the test reported for this molecule. Item: COP(=S)(OC)Oc1cc(Cl)c(Br)cc1Cl
FALSE

Write down the call the test reported for this molecule. Item: BrC(Br)C(Br)(Br)Br
FALSE

Write down the call the test reported for this molecule. Item: COP(N)(=S)OC
FALSE

Write down the call the test reported for this molecule. Item: COc1ccc(/C(=C/C(=O)N2CCOCC2)c2ccc(Cl)cc2)cc1OC
FALSE
